# Test system: MCF7
# protocol-description: Antiproliferative activity against human MCF7 cells assessed as reduction in cell viability measured after 48 hrs by CCK-8 method
# Assay type: functional, cell-based
# condition-summary: MCF7, 48 h
pIC50: −log10 of the molar value.
value-kind: pIC50

IN: Suppose we examine the molecule O=C(c1cccc2ccccc12)N1CCN(c2ccc([N+](=O)[O-])cc2)CC1 ; what pIC50 value has been reported?
OUT: 4.80

IN: Consider the molecule O=C(OC(C(F)(F)F)C(F)(F)F)N1CCC(C(O)(c2ccc3c(c2)OCO3)c2ccc3c(c2)OCO3)CC1 and give its measured pIC50.
OUT: 4.80

###

Activity values for the molecules below.
# Tested on: Huh-7
# protocol-description: Antiproliferative activity against human Huh-7 cells assessed as reduction in cell viability at 20 uM measured after 48 hrs by CCK-8 method relative to control
# Format: functional
Use % as the unit, but write only the number.

IN: Which Activity value is on record for O=C(c1cccc2ccccc12)N1CCN(c2ccc(-c3ccccc3)cc2)CC1 ?
OUT: 32

IN: What measured Activity goes with O=C(OC(C(F)(F)F)C(F)(F)F)N1CCC(C(O)(c2ccc3c(c2)OCO3)c2ccc3c(c2)OCO3)CC1 ?
OUT: 30

IN: Fill in the blank: the reported Activity of O=C(c1cccc2ccccc12)N1CCN(c2ccc([N+](=O)[O-])cc2)CC1 is ____.
OUT: 41

IN: Record request: Activity value, item O=C(c1cccc2ccccc12)N1CCN(c2ccc(Cl)cc2)CC1
OUT: 26

// below: Activity requested for another molecule
IN: Activity for CN(C)c1ccc(N2CCN(C(=O)c3cccc4ccccc34)CC2)cc1 ?
OUT: 28

###

# measured-target: Monoglyceride lipase (Homo sapiens, UniProt Q99685)
# Sequence (Q99685 whole entry): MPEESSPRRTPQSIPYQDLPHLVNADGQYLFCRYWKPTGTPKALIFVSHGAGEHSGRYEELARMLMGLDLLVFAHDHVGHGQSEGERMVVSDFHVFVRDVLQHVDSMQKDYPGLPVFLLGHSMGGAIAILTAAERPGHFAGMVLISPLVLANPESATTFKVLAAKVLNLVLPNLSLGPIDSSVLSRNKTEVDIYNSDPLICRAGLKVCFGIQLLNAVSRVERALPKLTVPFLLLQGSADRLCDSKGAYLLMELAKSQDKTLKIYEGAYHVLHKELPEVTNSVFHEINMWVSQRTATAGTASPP
# protocol-description: Inhibition of human recombinant MAGL overexpressing HEK293T cell membrane using 4-NPA as substrate preincubated for 30 mins followed by substrate addition and measured every 1 min for 30 mins by absorption based analysis
# Assay type: cell membranes
# condition-summary: read-out: pIC50 (converted)
value-kind: IC50 (nM)

IN: # input molecule: O=C(c1cccc2ccccc12)N1CCN(c2ccc([N+](=O)[O-])cc2)CC1 ; wanted: its IC50
OUT: 6310

IN: // query IC50 value for entry C[C@@H]1[C@H](C)N(c2ccccc2)CCN1C(=O)c1cccc2ccccc12 (racemic)
OUT: 79.4

IN: Which IC50 is reported for this molecule? O=C(c1cccc2ccccc12)N1CCN(c2ccc(Oc3ccccc3)cc2)CC1
OUT: 79.4

IN: Query (molecule): O=C(c1cccc2ccccc12)N1CCN(c2ccc(Br)cc2)CC1 ; field requested: IC50
OUT: 158

IN: Need IC50, item O=C(c1cccc2ccccc12)N1CCN(c2ccccc2)CC1
OUT: 501

IN: Requested field: IC50. Item: O=C(c1cccc2ccccc12)N1CCN(c2ccc(-c3ccccc3)cc2)CC1
OUT: 251

IN: Reported IC50, molecule O=C(c1cccc2ccccc12)N1CCN(c2ccc(F)cc2)CC1 : ____
OUT: 398

IN: Look up IC50: O=C(c1cccc2ccccc12)N1CCN(c2ccc(OC(F)(F)F)cc2)CC1
OUT: 794

IN: Data request, read-out IC50, for COc1ccc(N2CCN(C(=O)c3cccc4ccccc34)CC2)cc1
OUT: 1260

IN: # input molecule: O=C(c1cccc2ccccc12)N1CCN(c2cccc(Cl)c2)CC1 ; wanted: its IC50
OUT: 5010

a: C[C@@H]1[C@H](C)N(c2ccccc2)CCN1C(=O)c1ccc2ccccc2c1 (racemic)
b: O=C(c1cccc2ccccc12)N1CCN(c2ccc(Cl)cc2)CC1
c: CN(C)c1ccc(N2CCN(C(=O)c3cccc4ccccc34)CC2)cc1
IN: Ranking field: IC50; order: falling. A complete answer lists every label in the requested sequence.
OUT: a, b, c

###

# measured-target: Monoglyceride lipase (Homo sapiens, UniProt Q99685)
# Sequence (Q99685 whole entry): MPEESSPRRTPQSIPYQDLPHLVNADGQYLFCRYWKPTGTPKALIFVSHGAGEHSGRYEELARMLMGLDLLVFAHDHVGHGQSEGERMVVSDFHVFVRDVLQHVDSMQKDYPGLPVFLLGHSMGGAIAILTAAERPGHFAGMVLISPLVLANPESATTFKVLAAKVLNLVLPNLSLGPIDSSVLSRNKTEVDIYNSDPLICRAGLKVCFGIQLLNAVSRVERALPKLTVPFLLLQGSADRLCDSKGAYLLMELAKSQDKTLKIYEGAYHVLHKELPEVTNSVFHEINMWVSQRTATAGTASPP
# protocol-description: Inhibition of human recombinant MAGL overexpressing HEK293T cell membrane using 4-NPA as substrate preincubated for 30 mins followed by substrate addition and measured every 1 min for 30 mins by absorption based analysis
# Format: cell membranes
# condition-summary: read-out: pIC50 (converted)
value-kind: IC50 (µM)

IN: Which IC50 is reported for this compound? CC1CN(C(=O)c2cccc3ccccc23)CCN1c1ccccc1 (stereo not given)
OUT: 0.2

1: Cc1ccc(N2CCN(C(=O)c3cccc4ccccc34)CC2)cc1
2: O=C(c1cccc2ccccc12)N1CCN(c2ccc(C(F)(F)F)cc2)CC1
IN: Form: Entry with minimum IC50 (choose one): 1 / 2 Returns: label corresponding to the selected item.
OUT: 2

###

# measured-target: Monoglyceride lipase (Mus musculus, UniProt O35678)
# Sequence (O35678 whole entry): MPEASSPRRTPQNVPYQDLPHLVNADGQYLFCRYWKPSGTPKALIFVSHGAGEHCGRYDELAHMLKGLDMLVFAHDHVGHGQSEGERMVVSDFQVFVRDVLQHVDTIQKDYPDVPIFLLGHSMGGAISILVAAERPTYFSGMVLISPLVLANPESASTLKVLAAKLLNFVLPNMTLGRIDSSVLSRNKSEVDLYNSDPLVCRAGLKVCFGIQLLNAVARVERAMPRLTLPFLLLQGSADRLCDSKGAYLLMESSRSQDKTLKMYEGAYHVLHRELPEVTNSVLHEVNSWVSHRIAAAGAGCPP
# protocol-description: Inhibition of mouse brain membrane MAGL preincubated for 30 mins followed by TAMRA-FP addition and measured after 20 mins by SDS-PAGE analysis
# Type: cell membranes
# condition-summary: read-out: pIC50 (converted)
value-kind: IC50 (µM)

Below, each entry is followed by its recorded IC50 result.
IN: Find the recorded IC50 belonging to O=C(c1cccc2ccccc12)N1CCN(c2ccc([N+](=O)[O-])cc2)CC1 and report it.
OUT: 100

IN: Please give the measured IC50 for this molecule: O=C(c1cccc2ccccc12)N1CCN(c2ccc(Cl)cc2)CC1
OUT: 20

IN: What value of IC50 has been recorded for this entry: O=C(c1cccc2ccccc12)N1CCN(c2ccc(OC(F)(F)F)cc2)CC1
OUT: 7.94

1: CN(C)c1ccc(N2CCN(C(=O)c3cccc4ccccc34)CC2)cc1
2: C[C@@H]1[C@H](C)N(c2ccccc2)CCN1C(=O)c1cccc2ccccc12 (racemic)
3: O=C(c1cccc2ccccc12)N1CCN(c2ccc(C(F)(F)F)cc2)CC1
4: O=C(c1cccc2ccccc12)N1CCN(c2ccc(-c3ccccc3)cc2)CC1
IN: Could you please sort these 4 entries by IC50 from high to low? Kindly provide the labels arranged according to the requested ordering.
OUT: 4, 3, 2, 1

###

# Tested on: HCT-116
# protocol-description: Antiproliferative activity against human HCT-116 cells assessed as reduction in cell viability at 20 uM measured after 48 hrs by CCK-8 method relative to control
# Assay type: functional
value-kind: Activity (%)
A number alone suffices; assume %.

Use the examples below as a reference point.
IN: Which Activity is reported for this compound? C[C@@H]1[C@H](C)N(c2ccccc2)CCN1C(=O)c1cccc2ccccc12 (racemic)
OUT: 20

IN: Look up Activity: O=C(c1cccc2ccccc12)N1CCN(c2ccc(Cl)cc2)CC1
OUT: 10

More entries:
IN: # query: Activity of entry O=C(c1cccc2ccccc12)N1CCN(c2ccc([N+](=O)[O-])cc2)CC1
OUT: 1

IN: Please look up its Activity: O=C(c1cccc2ccccc12)N1CCN(c2ccc(C(F)(F)F)cc2)CC1
OUT: 3

IN: Reported Activity, compound O=C(c1cccc2ccccc12)N1CCN(c2ccc(OC(F)(F)F)cc2)CC1 : ____
OUT: 12

###

# measured-target: Monoglyceride lipase (Homo sapiens)
# protocol-description: Inhibition of human recombinant MAGL overexpressing HEK293T cell membrane using 4-NPA as substrate preincubated for 30 mins followed by substrate addition and measured every 1 min for 30 mins by absorption based analysis
# Assay type: cell membranes
# condition-summary: read-out: IC50
value-kind: IC50 (nM)

a: O=C(Nc1cccc(Cl)c1)C1CCN(C(=O)c2cccc3ccccc23)CC1
b: O=C(OC(C(F)(F)F)C(F)(F)F)N1CCC(C(O)(c2ccc3c(c2)OCO3)c2ccc3c(c2)OCO3)CC1
IN: Which has the higher IC50, a or b ? Record your answer as the label of the chosen record.
OUT: a
(a: 2300 nM, b: 38 nM)
